Data origin, for the record: the NIST ThermoML archive (doi:10.1016/j.jct.2013.02.004)

test: activity coefficient (dimensionless); of the first substance listed, at infinite dilution; xn = mol fraction of the nth substance listed; conditions: 328.15 K; 101 kPa; Liquid; Chromatography; x1 = 0
value_kind: activity coefficient
Please reply with the number alone, leaving off any unit.

In: Query: activity coefficient; subject: Cc1ccc(C)cc1 [1,4-dimethylbenzene] + CCCCCC[n+]1ccc2ccccc2c1.N#C[S-]
Out: 2.82

In: Query: activity coefficient; subject: Cc1ccccc1 [toluene] + CCCCCC[n+]1ccc2ccccc2c1.N#C[S-]
Out: 2.05

In: Query: activity coefficient; subject: c1ccncc1 [pyridine] + CCCCCC[n+]1ccc2ccccc2c1.N#C[S-]
Out: 0.703

In: Query: activity coefficient; subject: CCOCC [diethyl ether] + CCCCCC[n+]1ccc2ccccc2c1.N#C[S-]
Out: 6.69
